Assay: BIC plasma pharmacokinetics, Phase 1 open-label single-dose DDI study GS-US-380-3909 (B/F/TAF 50/200/25 mg with antacid or mineral supplements)
Assay type: in vivo, human
Conditions: both sexes, human, plasma, oral, BIC plasma C24, mean (%CV), Cohort 3 fed; B/F/TAF + calcium carbonate simultaneous; N = 14
Procedure: Eligible participants were adult (18–45 years) males and non-pregnant, non-lactating females in good general health at a screening evaluation performed no more than 28 days before the first study dose. […] Full eligibility criteria are available in the supplement. […] Three dosing cohorts were evaluated (Table 1). […] All samples were analyzed within the timeframe determined using frozen stability storage data. […]
EXPERIMENTAL_ENDPOINT: concentration at 24 h

Assign concentration at 24 h to the following record: `O=C(NCc1c(F)cc(F)cc1F)c1cn2c(c(O)c1=O)C(=O)N1[C@H]3CC[C@H](C3)O[C@@H]1C2`
1460 ng/mL

----------
test: BIC plasma pharmacokinetics, Phase 1 open-label single-dose DDI study GS-US-380-3909 (B/F/TAF 50/200/25 mg with antacid or mineral supplements); assay type: in vivo, human; settings: both sexes, human, plasma, oral, BIC VZ/F, mean (%CV), Cohort 3 fed; B/F/TAF + ferrous fumarate simultaneous; N = 14
EXPERIMENTAL_ENDPOINT: Vd/F (L)
Please respond with the number in L and leave the unit unwritten.

Please supply the value of reported Vd/F for the item O=C(NCc1c(F)cc(F)cc1F)c1cn2c(c(O)c1=O)C(=O)N1[C@H]3CC[C@H](C3)O[C@@H]1C2 [BIC, bictegravir]
19.3

----------
assay: BIC plasma pharmacokinetics, Phase 1 open-label single-dose DDI study GS-US-380-3909 (B/F/TAF 50/200/25 mg with antacid or mineral supplements); type: in vivo, human; conditions: both sexes, human, plasma, oral, BIC plasma AUCinf, mean (%CV), Cohort 2 fasted; B/F/TAF 2 hours after aluminum/magnesium-containing antacid; N = 13
EXPERIMENTAL_ENDPOINT: AUC(0-inf) (ng·h/mL)
// units = ng·h/mL; emit number, no label

In one line, give reported AUC(0-inf) of the entry `O=C(NCc1c(F)cc(F)cc1F)c1cn2c(c(O)c1=O)C(=O)N1[C@H]3CC[C@H](C3)O[C@@H]1C2` .
67700

----------
Assay: BIC plasma pharmacokinetics, Phase 1 open-label single-dose DDI study GS-US-380-3909 (B/F/TAF 50/200/25 mg with antacid or mineral supplements)
Type: in vivo, human
Settings: both sexes, human, plasma, oral, Cohort 3 fed; B/F/TAF with ferrous fumarate simultaneous; N = 14; read-out: Cmax, test GLSM
Method: Eligible participants were adult (18–45 years) males and non-pregnant, non-lactating females in good general health at a screening evaluation performed no more than 28 days before the first study dose. […] Full eligibility criteria are available in the supplement. […] Three dosing cohorts were evaluated (Table 1). […] All samples were analyzed within the timeframe determined using frozen stability storage data. […]
EXPERIMENTAL_ENDPOINT: Cmax (ng/mL)
Report as a plain number; the unit ng/mL is understood.

Give the reported value of Cmax for this record: O=C(NCc1c(F)cc(F)cc1F)c1cn2c(c(O)c1=O)C(=O)N1[C@H]3CC[C@H](C3)O[C@@H]1C2 [BIC, bictegravir]
3410

----------
assay: BIC plasma pharmacokinetics, Phase 1 open-label single-dose DDI study GS-US-380-3909 (B/F/TAF 50/200/25 mg with antacid or mineral supplements); assay type: in vivo, human; settings: both sexes, human, plasma, oral, BIC T1/2, median (Q1, Q3), Cohort 1 fasted; B/F/TAF alone; N = 14
EXPERIMENTAL_ENDPOINT: half-life (min)
The response must be a number in min with no trailing unit.

Using known records, supply half-life for `O=C(NCc1c(F)cc(F)cc1F)c1cn2c(c(O)c1=O)C(=O)N1[C@H]3CC[C@H](C3)O[C@@H]1C2`
1130

----------
assay: BIC plasma pharmacokinetics, Phase 1 open-label single-dose DDI study GS-US-380-3909 (B/F/TAF 50/200/25 mg with antacid or mineral supplements); type: in vivo, human; conditions: both sexes, human, plasma, oral, Cohort 3 fed; B/F/TAF with aluminum/magnesium-containing antacid simultaneous; N = 14; read-out: Cmax, test GLSM
EXPERIMENTAL_ENDPOINT: Cmax (ng/mL)
Give the value, in units of ng/mL, as a plain number.

Answer with reported Cmax of O=C(NCc1c(F)cc(F)cc1F)c1cn2c(c(O)c1=O)C(=O)N1[C@H]3CC[C@H](C3)O[C@@H]1C2 [BIC, bictegravir]
2340

----------
assay: BIC plasma pharmacokinetics, Phase 1 open-label single-dose DDI study GS-US-380-3909 (B/F/TAF 50/200/25 mg with antacid or mineral supplements); assay type: in vivo, human; conditions: both sexes, human, plasma, oral, BIC VZ/F, mean (%CV), Cohort 1 fasted; B/F/TAF + ferrous fumarate simultaneous; N = 14
EXPERIMENTAL_ENDPOINT: Vd/F (L)
# number only, unit L dropped from output

Answer with the recorded Vd/F of O=C(NCc1c(F)cc(F)cc1F)c1cn2c(c(O)c1=O)C(=O)N1[C@H]3CC[C@H](C3)O[C@@H]1C2 [BIC, bictegravir] only.
37.3

----------
test: BIC plasma pharmacokinetics, Phase 1 open-label single-dose DDI study GS-US-380-3909 (B/F/TAF 50/200/25 mg with antacid or mineral supplements); format: in vivo, human; conditions: both sexes, human, plasma, oral, BIC plasma C24, mean (%CV), Cohort 1 fasted; B/F/TAF alone; N = 14
EXPERIMENTAL_ENDPOINT: concentration at 24 h

Name the recorded concentration at 24 h of the compound listed here: `O=C(NCc1c(F)cc(F)cc1F)c1cn2c(c(O)c1=O)C(=O)N1[C@H]3CC[C@H](C3)O[C@@H]1C2`
1800 ng/mL

----------
test: BIC plasma pharmacokinetics, Phase 1 open-label single-dose DDI study GS-US-380-3909 (B/F/TAF 50/200/25 mg with antacid or mineral supplements); assay type: in vivo, human; settings: both sexes, human, plasma, oral, BIC plasma AUCinf, mean (%CV), Cohort 1 fasted; B/F/TAF + aluminum/magnesium-containing antacid simultaneous; N = 14
EXPERIMENTAL_ENDPOINT: AUC(0-inf) (ng·h/mL)
Quick reminder: number only, in ng·h/mL, skip the unit.

Specify reported AUC(0-inf) for the compound shown: O=C(NCc1c(F)cc(F)cc1F)c1cn2c(c(O)c1=O)C(=O)N1[C@H]3CC[C@H](C3)O[C@@H]1C2 [BIC, bictegravir]
28000

----------
assay: BIC plasma pharmacokinetics, Phase 1 open-label single-dose DDI study GS-US-380-3909 (B/F/TAF 50/200/25 mg with antacid or mineral supplements); type: in vivo, human; conditions: both sexes, human, plasma, oral, BIC plasma AUClast, mean (%CV), Cohort 3 fed; B/F/TAF + ferrous fumarate simultaneous; N = 14
EXPERIMENTAL_ENDPOINT: AUC(0-t) (ng·h/mL)
Dear colleague, please return just the value in ng·h/mL, with no unit written.

Supply AUC(0-t) value. Item: O=C(NCc1c(F)cc(F)cc1F)c1cn2c(c(O)c1=O)C(=O)N1[C@H]3CC[C@H](C3)O[C@@H]1C2 [BIC, bictegravir]
74500

----------
assay: BIC plasma pharmacokinetics, Phase 1 open-label single-dose DDI study GS-US-380-3909 (B/F/TAF 50/200/25 mg with antacid or mineral supplements); type: in vivo, human; conditions: both sexes, human, plasma, oral, BIC plasma C24, mean (%CV), Cohort 1 fasted; B/F/TAF + ferrous fumarate simultaneous; N = 14
EXPERIMENTAL_ENDPOINT: concentration at 24 h (ng/mL)
Number in ng/mL, nothing else.

Query concentration at 24 h for `O=C(NCc1c(F)cc(F)cc1F)c1cn2c(c(O)c1=O)C(=O)N1[C@H]3CC[C@H](C3)O[C@@H]1C2`
670

----------
experiment: BIC plasma pharmacokinetics, Phase 1 open-label single-dose DDI study GS-US-380-3909 (B/F/TAF 50/200/25 mg with antacid or mineral supplements); type: in vivo, human; conditions: both sexes, human, plasma, oral, Cohort 1 fasted; B/F/TAF with aluminum/magnesium-containing antacid simultaneous; N = 14; read-out: Cmax, test GLSM
EXPERIMENTAL_ENDPOINT: Cmax (ng/mL)
Write it as a number; the unit ng/mL goes unstated.

// fetch Cmax given entry `O=C(NCc1c(F)cc(F)cc1F)c1cn2c(c(O)c1=O)C(=O)N1[C@H]3CC[C@H](C3)O[C@@H]1C2`
1100

----------
test: BIC plasma pharmacokinetics, Phase 1 open-label single-dose DDI study GS-US-380-3909 (B/F/TAF 50/200/25 mg with antacid or mineral supplements); format: in vivo, human; conditions: both sexes, human, plasma, oral, BIC plasma AUCinf, mean (%CV), Cohort 3 fed; B/F/TAF + calcium carbonate simultaneous; N = 14
EXPERIMENTAL_ENDPOINT: AUC(0-inf) (ng·h/mL)
Write down the numeric answer in ng·h/mL and omit the unit.

Please give measured AUC(0-inf) of the following entry: O=C(NCc1c(F)cc(F)cc1F)c1cn2c(c(O)c1=O)C(=O)N1[C@H]3CC[C@H](C3)O[C@@H]1C2 [BIC, bictegravir]
94800

FYI, the data here is from paper PMC12777568.
